What MIC Enterococcus faecalis (ATCC 29212) was measured for each of the following?
- Test system: Enterococcus sp.
- test.description: in vitro antibacterial evaluation, MIC by broth dilution
- Type: cell-based
- measurement.context: strain ATCC 29212; broth dilution, 18 hours at 35° C.
I only need the number, in µg/mL, no unit after it.

[ask] Endpoint output: MIC Enterococcus faecalis (ATCC 29212) of CC(c1ccccc1)C1NC(=O)CNC(=O)C(CO)NC(=O)C(C(O)C2CNC(=N)N2C2OC(CO)C(O)C(O)C2O)NC(=O)C(C(O)C2CNC(=N)N2)NC(=O)C(Cc2ccc(OC3OC(CO)C(OC4OC5COC(c6ccc7c(c6)OCCO7)OC5C(O)C4O)C(O)C3O)cc2)NC1=O (centres unmarked) [Example 149] . Value?
[reply] 8

[ask] For the molecule shown here, CC(C)=CCOc1cccc(C2OCC3OC(OC4C(CO)OC(Oc5ccc(CC6NC(=O)C(C(C)c7ccccc7)NC(=O)CNC(=O)C(CO)NC(=O)C(C(O)C7CNC(=N)N7C7OC(CO)C(O)C(O)C7O)NC(=O)C(C(O)C7CNC(=N)N7)NC6=O)cc5)C(O)C4O)C(O)C(O)C3O2)c1 (centres unmarked) [Example 165] , give the reported MIC Enterococcus faecalis (ATCC 29212).
[reply] 16

* * *

- System: Enterococcus sp.
- test.description: in vitro antibacterial evaluation, MIC by broth dilution
- Format: cell-based
- measurement.context: strain GC 4554; broth dilution, 18 hours at 35° C.
metric.name: MIC Enterococcus faecalis (GC 4554) (µg/mL)
Please state the figure in µg/mL; there is no need to write the unit.

[ask] Requested read-out MIC Enterococcus faecalis (GC 4554), target or system Enterococcus sp., entry COc1cc(-c2nc3cc(CC4NC(=O)C(C(C)c5ccccc5)NC(=O)CNC(=O)C(CO)NC(=O)C(C(O)C5CNC(=N)N5C5OC(CO)C(O)C(O)C5O)NC(=O)C(C(O)C5CNC(=N)N5)NC4=O)ccc3o2)cc(OC)c1OC (stereo not drawn)
[reply] 32

[ask] Write down the reported MIC Enterococcus faecalis (GC 4554) of CC(c1ccccc1)C1NC(=O)CNC(=O)C(CO)NC(=O)C(C(O)C2CNC(=N)N2C2OC(CO)C(O)C(O)C2O)NC(=O)C(C(O)C2CNC(=N)N2)NC(=O)C(Cc2ccc(OC3OC(CO)C(OC4OC5COC(c6cccc(Oc7ccccc7)c6)OC5C(O)C4O)C(O)C3O)cc2)NC1=O (stereo not drawn) , test system: Enterococcus sp..
[reply] 2

[ask] For Enterococcus sp., provide MIC Enterococcus faecalis (GC 4554) of CC(c1ccccc1)C1NC(=O)CNC(=O)C(CO)NC(=O)C(C(O)C2CNC(=N)N2C2OC(CO)C(O)C(O)C2O)NC(=O)C(C(O)C2CNC(=N)N2)NC(=O)C(Cc2ccc3oc(SCC(=O)c4ccc(Cl)cc4)nc3c2)NC1=O (stereo not drawn) please.
[reply] 16

[ask] Missing value: MIC Enterococcus faecalis (GC 4554), Enterococcus sp., entry Cc1ccc(Oc2ccc(C3OCC4OC(OC5C(CO)OC(Oc6ccc(CC7NC(=O)C(C(C)c8ccccc8)NC(=O)CNC(=O)C(CO)NC(=O)C(C(O)C8CNC(=N)N8C8OC(CO)C(O)C(O)C8O)NC(=O)C(C(O)C8CNC(=N)N8)NC7=O)cc6)C(O)C5O)C(O)C(O)C4O3)cc2)cc1 (stereo not drawn) . Fill in?
[reply] 1
